Experiment: yeast display, Sf9 membrane polyspecificity reagent, FACS + sequencing; frameworks hold sequencing errors
MEASURED PROPERTY: polyreactivity (PSR sort gate)

{"RESIDUES": "QVQLEESGGGLVQAGGSLRLAVLPPDLPSTLNDMGWYRQAPGKERELVAAITRGGSTNYADSVKGRFTISRDNAKNTVYLQMNSLKPEDTAVYYCAAPYAGWRDGGDYWGQGTQVTVSS", "MEASURED VALUE": "low polyreactivity"}
{"RESIDUES": "QVQLVESGGGLVQAGGSLRLSCAASGYILGVYAMGWYRQAPGKERELVASISRSGGSTYYADSVKGRFTISRDNAKNTVYLQMNSLKPEDTAVYYCATRSRTAHFRLRYDYWGQGTQVTVSS", "MEASURED VALUE": "low polyreactivity"}
